# experiment.summary: Quantitative high throughput screen to test cell viability of anti-malarial compounds targeting the delayed death phenotype
# condition.description: HepG2 viability, CellTiter-Glo luminescence, 48 h; series mostly up to 46.1 µM
Inconclusive results are not listed. Calls of active or inactive are those of the source. The call rests on the fitted dose curve; in most records, active means well fitted curve in the direction sought with a large enough effect; inconclusive means small, poorly fitted or top-dose-only effect, or effect the other way, or another doubt; inactive means no such curve, though single readings can be large or run the other way.
readout.type: outcome

Study these solved cases before continuing.
COCCOC(=O)N(C)C[C@@H]1OCCCC[C@H](C)Oc2ccc(NC(=O)Nc3ccccc3)cc2C(=O)N([C@@H](C)CO)C[C@H]1C; inactive
C[C@@H]1CN([C@@H](C)CO)C(=O)c2cc(Nc3nc4ccccc4o3)ccc2O[C@@H](C)CCCCO[C@H]1CN(C)S(=O)(=O)c1ccc(F)cc1; inactive
CC(C)NC(=O)Nc1ccc2c(c1)C(=O)N([C@@H](C)CO)C[C@@H](C)[C@H](CN(C)S(=O)(=O)c1ccc(F)cc1)OCCCC[C@H](C)O2; inactive
C[C@@H]1CN([C@@H](C)CO)C(=O)c2cc(NC(=O)Nc3ccccc3)ccc2O[C@@H](C)C/C=C\CO[C@H]1CN(C)S(=O)(=O)c1ccc(F)cc1; inactive
C[C@@H]1CN(C)C(=O)c2cc(NC(=O)Nc3ccccc3)ccc2O[C@@H](C)CCCCO[C@@H]1CN(C)S(=O)(=O)c1ccc(F)cc1; inactive

So what does the record say about outcome for C[C@@H]1CN(CCO)C(=O)c2cc(NC(=O)Nc3ccccc3)ccc2O[C@@H](C)CCCCO[C@H]1CN(C)S(=O)(=O)c1ccc(F)cc1 ? inactive
